All values here come from patent US20170172994A1.

Assay target: Pseudomonas PBP 5/6 (Pseudomonas aeruginosa)
Sequence (G3XD74 entry or part of it): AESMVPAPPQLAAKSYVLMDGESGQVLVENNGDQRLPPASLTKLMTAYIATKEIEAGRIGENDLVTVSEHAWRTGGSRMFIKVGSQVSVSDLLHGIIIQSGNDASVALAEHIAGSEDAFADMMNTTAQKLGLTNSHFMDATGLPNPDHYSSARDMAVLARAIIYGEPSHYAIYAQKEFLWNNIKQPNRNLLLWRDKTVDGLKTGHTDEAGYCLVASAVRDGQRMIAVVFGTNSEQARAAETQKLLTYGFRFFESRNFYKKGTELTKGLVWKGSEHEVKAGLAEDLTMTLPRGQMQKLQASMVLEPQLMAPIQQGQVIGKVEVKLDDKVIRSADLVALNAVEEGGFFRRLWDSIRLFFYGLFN
Protocol description: PBP binding assay (Bocillin FL competition)
Quantity name: IC50

For reference, reported IC50 for CO/N=C(\C(=O)N[C@@H]1C(=O)N2C(C(=O)[O-])=C(C[N+]3(C)CCCC3)CS[C@H]12)c1csc(N)n1 [Cefepime] stands at > 8.32 µM

###

Assay target: Pseudomonas PBP 1A (Pseudomonas aeruginosa)
Construct: endogenous in cells
Sequence (Q07806 whole entry): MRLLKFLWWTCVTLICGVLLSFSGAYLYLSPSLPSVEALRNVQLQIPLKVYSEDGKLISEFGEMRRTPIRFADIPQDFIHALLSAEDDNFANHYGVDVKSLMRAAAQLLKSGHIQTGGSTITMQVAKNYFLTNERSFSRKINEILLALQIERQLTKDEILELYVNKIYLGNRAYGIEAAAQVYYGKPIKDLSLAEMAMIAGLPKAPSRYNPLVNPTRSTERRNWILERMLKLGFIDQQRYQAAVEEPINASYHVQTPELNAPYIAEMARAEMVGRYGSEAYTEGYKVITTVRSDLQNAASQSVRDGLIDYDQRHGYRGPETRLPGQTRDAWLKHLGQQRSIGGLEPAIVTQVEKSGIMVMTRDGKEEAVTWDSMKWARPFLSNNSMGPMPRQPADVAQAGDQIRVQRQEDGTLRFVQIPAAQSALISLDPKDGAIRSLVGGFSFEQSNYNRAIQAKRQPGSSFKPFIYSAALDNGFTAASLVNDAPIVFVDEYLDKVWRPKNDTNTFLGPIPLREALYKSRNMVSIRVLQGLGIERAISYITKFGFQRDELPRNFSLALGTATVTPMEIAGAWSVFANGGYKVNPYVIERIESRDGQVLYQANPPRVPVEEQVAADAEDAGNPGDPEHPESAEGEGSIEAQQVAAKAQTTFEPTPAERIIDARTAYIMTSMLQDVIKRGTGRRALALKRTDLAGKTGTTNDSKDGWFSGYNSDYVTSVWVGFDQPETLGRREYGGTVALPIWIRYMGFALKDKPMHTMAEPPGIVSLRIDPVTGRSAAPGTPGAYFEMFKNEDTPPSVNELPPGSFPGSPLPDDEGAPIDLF
Protocol description: PBP binding assay (Bocillin FL competition)
pIC50: −log10 of the molar value.
Quantity name: pIC50

# value of pIC50, Pseudomonas PBP 1A (Pseudomonas aeruginosa), item CC1(C)S[C@@H]2[C@H](/N=C/N3CCCCCC3)C(=O)N2[C@H]1C(=O)O [Mecillinam] = < 4.91
